Source listed as ChEMBL document CHEMBL1153868.

- Test system: Bel-7402
- Method: Cytotoxicity against human Bel7402 cells after 48 hrs
- Format: functional, cell-based
- Measurement context: Bel-7402, 48 h
pIC50: −log10 of the molar value.
Classification field: criterion met = pIC50 at or over 4; criterion not met = pIC50 under 4.

Example entries begin here.
Molecule | Class assignment
Nc1nc(N)c2c(n1)CCC(CNc1ccc(C(=O)NC(CCC(=O)O)C(=O)O)cc1Br)N2CC(Br)CBr (stereo unspecified) | criterion not met
C=CCN1c2c(N)nc(N)nc2CCC1CNc1ccc(C(=O)NC(CCC(=O)O)C(=O)O)cc1 (stereo unspecified) | criterion met
C=CCN1c2c(N)nc(N)nc2CCC1CNc1ccc(C(=O)NC(CCC(=O)O)C(=O)O)cc1Br (stereo unspecified) | criterion met

## Input Is reported pIC50 greater than or equal to 4 here: C=CCN(CC1CCc2nc(N)nc(N)c2N1CC=C)c1ccc(C(=O)NC(CCC(=O)O)C(=O)O)cc1 (stereo unspecified)
## Output criterion met

====

- Test system: BGC-823
- Method: Cytotoxicity against human BGC823 cells after 48 hrs
- Format: functional, cell-based
- Measurement context: BGC-823, 48 h
pIC50: −log10 of the molar value.
Classification field: 1.0 = pIC50 at or over 5; 0.0 = pIC50 under 5.

Example entries begin here.
Compound | Class assignment
C=CCN1c2c(N)nc(N)nc2CCC1CNc1ccc(C(=O)NC(CCC(=O)O)C(=O)O)cc1Br (stereo unspecified) | 1.0
Nc1nc(N)c2c(n1)CCC(CNc1ccc(C(=O)NC(CCC(=O)O)C(=O)O)cc1Br)N2CC(Br)CBr (stereo unspecified) | 0.0
CN(Cc1cnc2nc(N)nc(N)c2n1)c1ccc(C(=O)N[C@@H](CCC(=O)O)C(=O)O)cc1 [METHOTREXATE] | 1.0
C=CCN(CC1CCc2nc(N)nc(N)c2N1CC=C)c1ccc(C(=O)NC(CCC(=O)O)C(=O)O)cc1 (stereo unspecified) | 1.0
C=CCN1c2c(N)nc(N)nc2CCC1CNc1ccc(C(=O)NC(CCC(=O)O)C(=O)O)cc1 (stereo unspecified) | 1.0

Please examine the following record next.
## Input Is reported pIC50 greater than or equal to 5 here: Nc1nc(N)c2c(n1)CCC(CNc1ccc(C(=O)NC(CCC(=O)O)C(=O)O)cc1)N2 (stereo unspecified)
## Output 1.0

====

- System name: Dihydrofolate reductase (Homo sapiens)
- Sequence (P00374 whole entry): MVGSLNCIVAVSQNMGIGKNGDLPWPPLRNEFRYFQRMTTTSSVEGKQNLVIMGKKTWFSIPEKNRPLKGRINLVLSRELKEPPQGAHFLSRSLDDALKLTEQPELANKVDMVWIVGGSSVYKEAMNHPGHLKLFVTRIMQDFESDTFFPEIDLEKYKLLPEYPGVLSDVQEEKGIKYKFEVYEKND
- Method: Inhibition of human recombinant DHFR by spectrophotometry
Quick reference: log10 IC50 of the listed items.
Please note: log10 values; quantity IC50; unit nM.

Here are 4 molecules together with their reported answers.
Molecule | System name | log10 IC50
C=CCN(CC1CCc2nc(N)nc(N)c2N1CC=C)c1ccc(C(=O)NC(CCC(=O)O)C(=O)O)cc1 (stereo not given) | Dihydrofolate reductase (Homo sapiens) | 3.33
Nc1nc(N)c2c(n1)CCC(CNc1ccc(C(=O)NC(CCC(=O)O)C(=O)O)cc1Br)N2CC(Br)CBr (stereo not given) | Dihydrofolate reductase (Homo sapiens) | 3.97
C=CCN1c2c(N)nc(N)nc2CCC1CNc1ccc(C(=O)NC(CCC(=O)O)C(=O)O)cc1Br (stereo not given) | Dihydrofolate reductase (Homo sapiens) | 3.37
C=CCN1c2c(N)nc(N)nc2CCC1CNc1ccc(C(=O)NC(CCC(=O)O)C(=O)O)cc1 (stereo not given) | Dihydrofolate reductase (Homo sapiens) | 3.15

We now examine a further molecule.
## Input Check Dihydrofolate reductase (Homo sapiens) data and give log10 IC50 for Nc1nc(N)c2c(n1)CCC(CNc1ccc(C(=O)NC(CCC(=O)O)C(=O)O)cc1)N2 (stereo not given) .
## Output 2.75
